Target: Omicron spike protein (Severe acute respiratory syndrome coronavirus 2, UniProt P0DTC2, E484A/G339D/G446S/G496S/K417N/N440K/N501Y/Q493R/Q498R/S371L/S373P/S375F/S477N/T478K/Y505H)
Format: binding, SARS-CoV-2 Omicron variant (B.1.1.529 BA.1)
Settings: 0.2 µM
Kindly apply the following: satisfied if remaining activity % of omicron spike proteins is less than 50%, not satisfied in every other case.

Task item: In the record for Cc1onc(NS(=O)(=O)c2ccc(-n3cc(CSc4nc5ccccc5n4Cc4cn(-c5ccc(S(=O)(=O)Nc6noc(C)c6C)cc5)nn4)nn3)cc2)c1C [compound 9] , is remaining activity % of omicron spike proteins less than 50%?
Reply: satisfied

Task item: Also check O=C(Cn1cc(CSc2nc3ccccc3n2Cc2cn(CC(=O)NNC(=S)Nc3ccccc3)nn2)nn1)NNC(=S)Nc1ccccc1 [compound 4]
Reply: satisfied

Task item: Now the same for S=c1[nH]nc(Cn2cc(CSc3nc4ccccc4n3Cc3cn(Cc4n[nH]c(=S)n4-c4ccccc4)nn3)nn2)n1-c1ccccc1 [compound 6]
Reply: satisfied

Task item: What would you report for CC(C)(O/N=C(\C(=O)N[C@@H]1C(=O)N2C(C(=O)[O-])=C(C[n+]3ccccc3)CS[C@H]12)c1csc(N)n1)C(=O)O [Ceftazidime, ceftazidime, reference compound] ?
Reply: not satisfied

Task item: For Cc1ccc2nc(NC(=O)Cn3cc(CN4C(=O)C(=O)c5ccccc54)nn3)sc2c1 [compound 12] then?
Reply: not satisfied

Task item: And the next one, Nn1c(Cn2cc(CSc3nc4ccccc4n3Cc3cn(Cc4n[nH]c(=S)n4N)nn3)nn2)n[nH]c1=S [compound 7] ?
Reply: satisfied

Task item: Next record, please: O=C(Cn1cc(CSc2nc3ccccc3n2Cc2cn(CC(=O)NNC(=S)Nc3ccc(F)cc3)nn2)nn1)NNC(=S)Nc1ccc(F)cc1 [compound 5]
Reply: satisfied

###

Target: Omicron spike protein (Severe acute respiratory syndrome coronavirus 2, UniProt P0DTC2, E484A/G339D/G446S/G496S/K417N/N440K/N501Y/Q493R/Q498R/S371L/S373P/S375F/S477N/T478K/Y505H)
Type: binding, SARS-CoV-2 Omicron variant (B.1.1.529 BA.1)
Details: 0.5 µM
Kindly supply the reported remaining activity % of omicron spike proteins values for the records listed here.
Answer with a number only, understood to be in %.

Task item: Which remaining activity % of omicron spike proteins is reported for this compound? "O=C(Cn1cc(CSc2nc3ccccc3n2Cc2cn(CC(=O)NNC(=S)Nc3ccc(F)cc3)nn2)nn1)NNC(=S)Nc1ccc(F)cc1"
Reply: 30

Task item: Now the same for "O=C(Cn1cc(CSc2nc3ccccc3n2Cc2cn(CC(=O)NNC(=S)Nc3ccccc3)nn2)nn1)NNC(=S)Nc1ccccc1"
Reply: 20

Task item: And for "Nn1c(Cn2cc(CSc3nc4ccccc4n3Cc3cn(Cc4n[nH]c(=S)n4N)nn3)nn2)n[nH]c1=S" ?
Reply: 40

Task item: For CC(C)(O/N=C(\C(=O)N[C@@H]1C(=O)N2C(C(=O)[O-])=C(C[n+]3ccccc3)CS[C@H]12)c1csc(N)n1)C(=O)O [Ceftazidime, ceftazidime, reference compound] then?
Reply: 54

Task item: Another compound to check: "Cc1onc(NS(=O)(=O)c2ccc(-n3cc(CSc4nc5ccccc5n4Cc4cn(-c5ccc(S(=O)(=O)Nc6noc(C)c6C)cc5)nn4)nn3)cc2)c1C"
Reply: 10.3

Task item: Another compound: "Cc1ccc2nc(NC(=O)Cn3cc(CN4C(=O)C(=O)c5ccccc54)nn3)sc2c1"
Reply: 82

Task item: Now consider "S=c1[nH]nc(Cn2cc(CSc3nc4ccccc4n3Cc3cn(Cc4n[nH]c(=S)n4-c4ccccc4)nn3)nn2)n1-c1ccccc1" and answer again.
Reply: 29
